- Tested on: NCI-H522
- run description: NCI tumour cell line growth inhibition, 48 h
Active and inactive are the calls of the source. No stated cut-off is given here; in the data, active = GI50 up to about 1.1 µM and inactive = higher. Residues, ends and D or L forms follow the SMILES beside them. Groups on a side chain read outwards from the residue. *: point of attachment. Cbz = O=C(OCc1ccccc1)*; Boc = CC(C)(C)OC(=O)*
Property: GI50; scope: individual compounds

Any idea what its GI50 is? The compound is CC1(C)CN(CC(=O)O)CC(Cc2ccc(OCC(=O)O)cc2)N(CC(=O)O)CC(C)(C)SS1 (stereo unspecified)
> 100 µM (inactive)

Here is the next compound: COc1cc(OC)c(C2c3cc4c(cc3OC(N3CCCC3)C2C)OCO4)c(OC)c1 (stereo unspecified)
15.3 µM (inactive)

Here is the next compound: CC(=O)c1ccccc1NP(=O)(c1ccccc1)c1ccccc1
37.3 µM (inactive)

Here is the next compound: CC(Br)C(=O)NN1C2=C(Nc3ccccc31)c1cccc3cccc2c13 (stereo unspecified)
92 µM (inactive)

Here is the next compound: CCCCCCCC(CC(=O)NC(CO)C(=O)NC(CO)CC(C)C)OC(=O)CC(CCCCCCC)OC(=O)CC(CCCCCCC)OC1OC(C)C(O)C(OC2OC(C)C(OC(C)=O)C(O)C2O)C1O (stereo unspecified)
11.7 µM (inactive)

Here is the next compound: Cc1ccc(S(=O)(=O)NCCSS(=O)(=O)c2ccc(C)cc2)cc1
18.2 µM (inactive)

Here is the next compound: CC(C)(C)OC(=O)NC(CCCCNC(=O)CNC(=O)OCc1ccccc1)C(=O)NC(CCCCNC(=O)CNC(=O)OCc1ccccc1)C(=O)NC(CCCCNC(=O)CNC(=O)OCc1ccccc1)C(=O)NC(CCCCNC(=O)CNC(=O)OCc1ccccc1)C(=O)O (stereo unspecified) (Boc-K([Gly-Cbz])K([Gly-Cbz])K([Gly-Cbz])K([Gly-Cbz])-OH; configuration not given here)
> 100 µM (inactive)

Here is the next compound: Clc1ccc(-c2c(C3=NCCN3)nnn2-c2ccc(Cl)cc2)cc1
16 µM (inactive)

Here is the next compound: CCOC(=O)C(C(=O)c1ccccc1C(=O)OC)=P(c1ccccc1)(c1ccccc1)c1ccccc1
> 10 µM (inactive)

Here is the next compound: CCOc1ccc(NC(=O)CC2SC(Nc3ccc(C)cc3)=NC2=O)cc1 (stereo unspecified)
> 100 µM (inactive)

Here is the next compound: COc1ccc2c(O)c3[n+](cc2c1OC)CCc1cc2c(cc1-3)OCO2
17 µM (inactive)

* * *

- System: MDA-MB-435
- run description: NCI tumour cell line growth inhibition, 48 h
The source made the active and inactive calls. Cut-off read from the data, not from the text of the source: active = GI50 up to about 1.1 µM and inactive = higher.
recorded metric: GI50

# annotated cases, reported GI50 shown
compound | recorded metric | observed result
COc1ncnc2c1cnn2Cc1cn(COCC(O)CO)nn1 (stereo not drawn) | GI50 | > 100 µM (inactive)
N/C(S)=N/N=C/c1cc(CN2CCOCC2)c(N)cn1 | GI50 | 70.3 µM (inactive)

Under MDA-MB-435: GI50 value of CSC12c3cc(C)n(-c4ccccc4)c3CC(C)(C)CN1C(=O)C2Oc1ccccc1 (stereo not drawn) ?
> 100 µM (inactive)

* * *

- Tested on: UACC-62
- run description: NCI tumour cell line growth inhibition, 48 h
The source made the active and inactive calls. Cut-off read from the data, not from the text of the source: active = GI50 up to about 1.1 µM and inactive = higher.
Outcome (select one): yes for active, no for inactive

Example results:
molecule | class name
CCCCNc1nc(C#N)c(N)s1 | no
O=[As](O)(O)c1ccc(/N=N/c2ccc([As](=O)(O)O)cc2)cc1 | no
CC1(C)OC2OC(C(COS(=O)(=O)C(F)(F)F)N=[N+]=[N-])C(OC(=O)c3ccccc3)C2O1 (centres undefined) | no

Per the records of this test, what outcome belongs to CC(C)(C)[Si](C)(C)OCC1OC(n2cc(I)c(=O)[nH]c2=O)C(O[Si](C)(C)C(C)(C)C)C1O[Si](C)(C)C(C)(C)C (centres undefined) ?
no

Here is the next molecule: Cc1ccc(-c2ccc(Nc3c4ccccc4nc4ccccc34)cc2)cn1
no

Here is the next molecule: C[C@]12CC[C@@H]3c4ccc(O)cc4CC[C@H]3[C@@H]1CC[C@@H]2OC(=O)CCc1ccccc1
no

Here is the next molecule: CN(C)C(=O)Oc1c(Br)cc(Br)cc1C(=O)OCc1ccccc1
no

Here is the next molecule: O=C1OC(O)C(Oc2ccc(Cl)cc2)=C1Cl (centres undefined)
no
